# test-summary: Protein binding in human plasma incubated for 48 hrs by UPLC-MS method
# Format: ADME, cell-free
# condition-label: read-out: PPB (converted)
recorded-endpoint: fraction unbound at 48 h
In your answer, state the number alone without any accompanying words.

QUERY: Fill in the blank: the reported fraction unbound at 48 h of O=C(COc1c(Cl)cc(Cl)cc1Cl)N/N=C/c1ccc[nH]1 is ____.
RESULT: 0.012

---

# test-summary: Stability in phosphate buffered saline with 0.1% DMSO assessed as compound remaining measured after 48 hrs by UPLC-MS method
# Format: physicochemical
# condition-label: read-out: Stability
recorded-endpoint: remaining at 48 h (%)
Write it as a number; the unit % goes unstated.

QUERY: Fill in the blank: the reported remaining at 48 h of O=C(COc1c(Cl)cc(Cl)cc1Cl)N/N=C/c1ccc[nH]1 is ____.
RESULT: 76

---

# test-summary: Stability in presence of glutathione containing medium assessed as compound remaining measured after 48 hrs by UPLC-MS method
# Format: physicochemical
# condition-label: read-out: Stability
recorded-endpoint: remaining at 48 h (%)
Write it as a number; the unit % goes unstated.

QUERY: Fill in the blank: the reported remaining at 48 h of O=C(COc1c(Cl)cc(Cl)cc1Cl)N/N=C/c1ccc[nH]1 is ____.
RESULT: 85

---

# test-summary: Stability in human plasma assessed as compound remaining measured after 5 hrs by UPLC-MS method
# Type: ADME, cell-free
# condition-label: read-out: Stability
recorded-endpoint: remaining at 5 h (%)
Write it as a number; the unit % goes unstated.

QUERY: Fill in the blank: the reported remaining at 5 h of O=C(COc1c(Cl)cc(Cl)cc1Cl)N/N=C/c1ccc[nH]1 is ____.
RESULT: 49
